# assay_details: Single oral dose exposure in NOD/SCID mice
# Assay type: in vivo
# protocol_conditions: male, mouse, plasma, single oral dose 30 mg/kg
measure: Cmax (ng/mL)

>>> numeric_result("Cc1c(N2CCC3(CC2)CO[C@@H](C)[C@H]3N)nc(C)n(-c2cccc(Cl)c2Cl)c1=O (atropisomer, axis not shown; (Ra)) [Compound (10b)]")
4870

---

# assay_details: Single oral dose exposure in NOD/SCID mice
# Assay type: in vivo
# protocol_conditions: male, mouse, plasma, single oral dose 3 mg/kg
measure: AUC(0-inf) (ng·h/mL)

>>> numeric_result("Cc1c(N2CCC3(CC2)CO[C@@H](C)[C@H]3N)nc(C)n(-c2cccc(Cl)c2Cl)c1=O (atropisomer, axis not shown; (Ra)) [Compound (10b)]")
3530

---

# assay_details: Phase 1/1B first-in-human study, safety and PK (Cohorts 1-5)
# Type: in vivo
# protocol_conditions: human, plasma, oral, 250 mg, 250 mg QD, C1D1, N=2 (1 subject excluded)
measure: Tmax (h)

>>> numeric_result("Cc1c(N2CCC3(CC2)CO[C@@H](C)[C@H]3N)nc(C)n(-c2cccc(Cl)c2Cl)c1=O (atropisomer, axis not shown; (Ra)) [Compound (10b)]")
3

---

# assay_details: Single-dose pharmacokinetics, Beagle dog
# Format: in vivo, male)
# protocol_conditions: male, Beagle, dog, plasma; IV 1 mg/kg, free base; read-out: Clp (converted)
measure: clearance (mL/min/kg)

>>> numeric_result("Cc1c(N2CCC3(CC2)CO[C@@H](C)[C@H]3N)nc(C)n(-c2cccc(Cl)c2Cl)c1=O (atropisomer, axis not shown; (Ra)) [Compound (10b)]")
8.5

---

# assay_details: Phase 1/1B first-in-human study, safety and PK (Cohorts 1-5)
# Type: in vivo
# protocol_conditions: human, plasma, oral, 150 mg, 150 mg QD, C2D1, N=3
measure: Tmax (h)

>>> numeric_result("Cc1c(N2CCC3(CC2)CO[C@@H](C)[C@H]3N)nc(C)n(-c2cccc(Cl)c2Cl)c1=O (atropisomer, axis not shown; (Ra)) [Compound (10b)]")
3.33

---

# assay_details: Single oral dose exposure in NOD/SCID mice
# Type: in vivo
# protocol_conditions: male, mouse, plasma, single oral dose 1 mg/kg
measure: Cmax

>>> result("Cc1c(N2CCC3(CC2)CO[C@@H](C)[C@H]3N)nc(C)n(-c2cccc(Cl)c2Cl)c1=O (atropisomer, axis not shown; (Ra)) [Compound (10b)]")
"160 ng/mL"

---

# assay_details: Single-dose pharmacokinetics, Cynomolgus monkey
# Assay type: in vivo, male)
# protocol_conditions: male, cynomolgus monkey, plasma; oral 1 mg/kg, free base
measure: Tmax (h)

>>> numeric_result("Cc1c(N2CCC3(CC2)CO[C@@H](C)[C@H]3N)nc(C)n(-c2cccc(Cl)c2Cl)c1=O (atropisomer, axis not shown; (Ra)) [Compound (10b)]")
2.67

---

# assay_details: Single oral dose exposure in NOD/SCID mice
# Assay type: in vivo
# protocol_conditions: male, mouse, brain, oral, mean over doses 1-100 mg/kg, read-out: mean total brain/plasma level at 24 hours
measure: Kp at 24 h

>>> numeric_result("Cc1c(N2CCC3(CC2)CO[C@@H](C)[C@H]3N)nc(C)n(-c2cccc(Cl)c2Cl)c1=O (atropisomer, axis not shown; (Ra)) [Compound (10b)]")
0.33
